# ASSAY_OVERVIEW: blockers of Ca2+-induced mitochondrial swelling – biochemical, isolated mouse mitochondria, absorbance, primary screen (AID 602449);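 also: 0% = DMSO wells given calcium and 100% = 1 mM EGTA wells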
# CONDITION_NOTES: 30 min, at 10 µM, active compounds read high
Screen size: about 360,000 compounds; about 5,000 (1.4%) were called active. The sample holds actives, similar compounds and a random draw of the others, so the mix is not that of the screen.
ASSAY_METRIC: inhibition (%)
Field: numeric (%). Do not append units.

Q: Given the compound CCOc1cc(CNn2c(C)nnc2SCC(=O)NC(C)(C)C)ccc1OCC(=O)NC(C)(C)C , what is its reported inhibition?
Ans: -1.3

Q: Given the compound Cc1nc(SCC(=O)NC2CCCCC2C)c(C#N)c(C)c1C (centres undefined) , what is its reported inhibition?
Ans: 0.8

Q: Given the compound COc1ccc(-c2n[nH]c3c2CN(C(=O)c2ccc(F)cc2)CC3)cc1 , what is its reported inhibition?
Ans: 1.2

Q: Given the compound O=C(CSc1n[nH]c(-c2cccnc2)n1)Nc1ccc(Cl)cc1 , what is its reported inhibition?
Ans: 1.2

Q: Given the compound CN1CCC[C@@H]1CCO[C@](C)(c1ccccc1)c1ccc(Cl)cc1 , what is its reported inhibition?
Ans: 78

Q: Given the compound CC(=O)Nc1ccc(C(=O)CSc2nc3ccc(C)cc3[nH]2)cc1 , what is its reported inhibition?
Ans: -1.5

Q: Given the compound Cc1ccc(-c2nc(C)sc2CC(=O)OCC(=O)Nc2c(F)cccc2F)cc1 , what is its reported inhibition?
Ans: 0.8

Q: Given the compound O=C(NNC(=O)c1csc(-c2cccnc2)n1)Nc1ccc(Cl)cc1 , what is its reported inhibition?
Ans: 56.5

Q: Given the compound O=C(CSc1nc2ccc([N+](=O)[O-])cc2[nH]1)c1ccc(Cl)cc1 , what is its reported inhibition?
Ans: 104

Q: Given the compound O=C(COc1ccccc1F)NNC(=O)c1cc(Br)ccc1Cl , what is its reported inhibition?
Ans: -1.8

Q: Given the compound O=C(NCCOc1ccccc1Cl)C(=O)Nc1ccccc1 , what is its reported inhibition?
Ans: -1.3

Q: Given the compound Cc1occc1-c1nnc(SCC(=O)NC2(C#N)CCCC2)n1C , what is its reported inhibition?
Ans: -0.8

Q: Given the compound O=C(Nc1cccc(C(F)(F)F)c1)c1ccc(N2CCNCC2)c([N+](=O)[O-])c1 , what is its reported inhibition?
Ans: 69.8

Q: Given the compound Cn1c(=O)c(C(=O)Nc2ncccn2)c(O)c2ccccc21 , what is its reported inhibition?
Ans: -1.3

Q: Given the compound CCc1nc2ccc(C(=O)NCCNC(C)=O)cn2c1N(CC)Cc1cccc(Br)c1 , what is its reported inhibition?
Ans: -0.2

Q: Given the compound COC(=O)C1C(=O)NCC1c1ccc(OC)cc1 (centres undefined) , what is its reported inhibition?
Ans: 1.1

Q: Given the compound CCOC(=O)N1CCN(C(=O)c2nn(-c3ccc(C)cc3)c(=O)c3c2c2ccccc2n3C)CC1 , what is its reported inhibition?
Ans: 11.3

Q: Given the compound O=C(CSc1ccccc1)Nc1nnc(/C=C/c2ccccc2)s1 , what is its reported inhibition?
Ans: 2.2

Q: Given the compound N#C[C@]1(S(=O)(=O)c2ccccc2)C[C@@H]2ON=C(c3cccc(Br)c3)[C@@H]2C1 , what is its reported inhibition?
Ans: 72.4

Q: Given the compound Nc1nc(CSc2nnnn2-c2ccccc2)nc(Nc2ccccc2)n1 , what is its reported inhibition?
Ans: 0

Q: Given the compound Cc1ccc(-c2nc3c(Cl)cc(C(F)(F)F)cn3c2Cc2cccc(Cl)c2)cc1 , what is its reported inhibition?
Ans: 4.1

Q: Given the compound C[C@H](NC(=O)NCCc1ccccc1)C(=O)O , what is its reported inhibition?
Ans: -2.9

Q: Given the compound COC(=O)[C@]12CCCCC=C1N(Cc1ccccc1)C(=O)[C@H](CC(=O)NCc1ccc(C)o1)C2 , what is its reported inhibition?
Ans: -0.1

Q: Given the compound Nc1nnc(SCC(=O)NCC(=O)Nc2ccc(F)c(F)c2F)s1 , what is its reported inhibition?
Ans: -2.5

Q: Given the compound CC(C)C[C@H](NC(=O)C1CC(=O)N(c2ccc3c(c2)OCCO3)C1)C(=O)NC1CCCC1 (some centres undefined) , what is its reported inhibition?
Ans: -0.1

Q: Given the compound Cc1c(C(=O)NCC2CC2)sc(=O)n1Cc1cccc(F)c1 , what is its reported inhibition?
Ans: -2.3

Q: Given the compound COC(=O)Nc1ncc(CN2C(=O)c3ccccc3C2=O)s1 , what is its reported inhibition?
Ans: -1.2

Q: Given the compound COC(=O)c1ccc(NC(=O)c2ccccc2NS(=O)(=O)c2ccccc2)cc1 , what is its reported inhibition?
Ans: 102

Q: Given the compound COCCNC(=O)CSc1nc2sccc2c(=O)n1-c1ccccc1 , what is its reported inhibition?
Ans: 0

Q: Given the compound COc1cc(NC(=O)c2ccccc2NS(=O)(=O)c2ccc(Cl)s2)cc(OC)c1 , what is its reported inhibition?
Ans: 67

Q: Given the compound O=C(Nc1ccc(Cl)cc1)c1csc([C@@H]2O[C@H](CO)[C@H](O)[C@H](O)[C@H]2O)n1 , what is its reported inhibition?
Ans: -4.4

Q: Given the compound COc1cc(/C=N/N=C(\N)c2nonc2N)cc(OC)c1OC , what is its reported inhibition?
Ans: -1.6

Q: Given the compound CCCCN(CCCC)CCC(O)c1cc2c(Cl)cc(Cl)cc2c2cc(C(F)(F)F)ccc12 (centres undefined) , what is its reported inhibition?
Ans: 112

Q: Given the compound CCOC(=O)CNC(=O)/C=C/c1c(Cl)cccc1Cl , what is its reported inhibition?
Ans: 0.6

Q: Given the compound O=C(Nc1ccc(Cl)cc1)Nc1nnc(/C=C/c2ccccc2)s1 , what is its reported inhibition?
Ans: 89.9

Q: Given the compound O=C(NCCOc1ccccc1F)Nc1ccc(Br)cc1 , what is its reported inhibition?
Ans: 87.9

Q: Given the compound O=S(=O)(Nc1ccccc1N1CCOCC1)c1ccc(Cl)s1 , what is its reported inhibition?
Ans: -0.7

Q: Given the compound Cc1ccc(C(=O)Nc2nnc(C3=COCCO3)o2)cc1C , what is its reported inhibition?
Ans: -0.8

Q: Given the compound COc1cccc(NC(=O)c2ccccc2N(Cc2ccccc2)S(C)(=O)=O)c1 , what is its reported inhibition?
Ans: 0

Q: Given the compound Cc1csc(NC(=O)CSc2nnc(-c3cccnc3)o2)n1 , what is its reported inhibition?
Ans: -0.1

Q: Given the compound OC(c1ccccc1)(c1ccccc1)C1CCN(CCCOc2ccccc2)CC1 , what is its reported inhibition?
Ans: 4.5

Q: Given the compound COc1ccc(S(=O)(=O)Nc2cccnc2)c(Cl)c1Cl , what is its reported inhibition?
Ans: 0.5

Q: Given the compound CCOC(=O)c1nnn2c3ccccc3c(=O)n(C)c12 , what is its reported inhibition?
Ans: 1.2

Q: Given the compound COc1ccccc1Oc1ccc(S(=O)(=O)Nc2cccnc2)cc1 , what is its reported inhibition?
Ans: 82.5

====

# ASSAY_OVERVIEW: blockers of Ca2+-induced mitochondrial swelling – biochemical, isolated mouse mitochondria, absorbance, primary screen (AID 602449);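 also: 0% = DMSO wells given calcium and 100% = 1 mM EGTA wells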
# CONDITION_NOTES: 30 min, at 10 µM
The whole screen tested about 360,000 compounds, of which about 5,000 (1.4%) were called active.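 How the source made its calls: active means inhibition of 50% or more, scaled per plate between neutral and stimulator controls; inactive means the rest.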 The entries come from a sample that favours actives as a whole.
Give your call using only these classes: class 1 (active), class 0 (inactive)

Q: So what was the verdict on O=C(c1cccc(N2CCCC2=O)c1)N1CCOCC1 in this test?
Ans: class 0

Q: So what was the verdict on CCCS(=O)(=O)N1CCCC(C(=O)NCCN2CCCCC2C)C1 (stereo unspecified) in this test?
Ans: class 0

Q: So what was the verdict on CCC1CCCCN1C(=S)NC(=O)c1ccco1 (stereo unspecified) in this test?
Ans: class 0

Q: So what was the verdict on CC(C)(CNC(=O)Cc1ccc(Cl)cc1Cl)N1CCOCC1 in this test?
Ans: class 0

Q: So what was the verdict on Cc1ccc(-c2nc(-c3cccnc3)sc2CC(=O)Nc2ccc(C)c(Cl)c2)cc1 in this test?
Ans: class 1

Q: So what was the verdict on O=C(Nc1cccc(Cl)c1)Nc1ccccc1NS(=O)(=O)c1cccs1 in this test?
Ans: class 1

Q: So what was the verdict on C=CCNC(=O)CCCC(=O)NCC=C in this test?
Ans: class 0

Q: So what was the verdict on CC(C)c1ccc(NC(=O)NC2CCCCC2)cc1 in this test?
Ans: class 0

Q: So what was the verdict on Cc1nc(-c2ccc(F)cc2)c(CC(=O)Nc2cc(S(=O)(=O)N3CCCCC3)ccc2C)s1 in this test?
Ans: class 0

Q: So what was the verdict on Cc1cc(Cl)ccc1-c1nc(NCCN(C)C)nc2ccsc12 in this test?
Ans: class 0

Q: So what was the verdict on Cc1nn(-c2ccccc2)c2c1c(C)c(CCC(=O)NCC1CCCO1)c(=O)n2C (stereo unspecified) in this test?
Ans: class 0
